assay_info: in vitro
Assay type: cell-based
run_parameters: sheep, choroid plexus cells, range of individual values; 6 days, 37° C; virus free; read-out: MCC (minimum cytotoxic concentration), Range
measured_endpoint: MCC at 144 h (µg/mL)
Write it as a number; the unit µg/mL goes unstated.

Using the record for O=C(O)P(=O)(O)O [Phosphonoformate] , report its MCC at 144 h.
100

----------
assay_info: in vitro
Assay type: cell-based
run_parameters: sheep, choroid plexus cells; lowest concentration producing a score of ≤1 or visible alteration in cell morphology; 6 days, 37° C; virus free; read-out: MCC (minimum cytotoxic concentration), Individual Values
measured_endpoint: MCC at 144 h (µg/mL)
# unit: µg/mL | format: bare number

Name the reported MCC at 144 h value associated with the compound O=C(O)P(=O)(O)O [Phosphonoformate]
100

----------
assay_info: in vitro
Type: cell-based
run_parameters: sheep, choroid plexus cells, MCC (minimum cytotoxic concentration), Individual Values
measured_endpoint: MCC at 144 h (µg/mL)
// units = µg/mL; emit number, no label

Returns the measured MCC at 144 h for the input molecule. Input: Cc1cn([C@H]2C[C@H](N=[N+]=[N-])[C@@H](CO)O2)c(=O)[nH]c1=O [Azidothymidine]
40

----------
assay_info: in vitro
Type: cell-based
run_parameters: sheep, choroid plexus cells, MCC (minimum cytotoxic concentration), Range
Where a name gives a salt, the structure may show the parent alone.
measured_endpoint: MCC at 144 h

Look at this molecule and give its reported MCC at 144 h. NC(=O)c1ncn([C@@H]2O[C@H](CO)[C@@H](O)[C@H]2O)n1
100 to 320 µg/mL

Suppose we examine the molecule Cc1cn([C@H]2C[C@H](N=[N+]=[N-])[C@@H](CO)O2)c(=O)[nH]c1=O ; what MCC at 144 h value has been reported?
40 µg/mL

Name the reported MCC at 144 h value associated with the molecule Nc1nc2c(ncn2COC2COP(=O)(O)OC2)c(=O)[nH]1 (stereo not drawn) [2'-nor-cGMP, sodium salt]
32 to 100 µg/mL
